Measured IC50 values are reported for all entries that follow.
- Experimental Target: CD45 (Homo sapiens, UniProt P08575)
- Construct: purchased BIOMOL (Plymouth Meeting, P.A.)
- Sequence (P08575 599-1306 limits assumed): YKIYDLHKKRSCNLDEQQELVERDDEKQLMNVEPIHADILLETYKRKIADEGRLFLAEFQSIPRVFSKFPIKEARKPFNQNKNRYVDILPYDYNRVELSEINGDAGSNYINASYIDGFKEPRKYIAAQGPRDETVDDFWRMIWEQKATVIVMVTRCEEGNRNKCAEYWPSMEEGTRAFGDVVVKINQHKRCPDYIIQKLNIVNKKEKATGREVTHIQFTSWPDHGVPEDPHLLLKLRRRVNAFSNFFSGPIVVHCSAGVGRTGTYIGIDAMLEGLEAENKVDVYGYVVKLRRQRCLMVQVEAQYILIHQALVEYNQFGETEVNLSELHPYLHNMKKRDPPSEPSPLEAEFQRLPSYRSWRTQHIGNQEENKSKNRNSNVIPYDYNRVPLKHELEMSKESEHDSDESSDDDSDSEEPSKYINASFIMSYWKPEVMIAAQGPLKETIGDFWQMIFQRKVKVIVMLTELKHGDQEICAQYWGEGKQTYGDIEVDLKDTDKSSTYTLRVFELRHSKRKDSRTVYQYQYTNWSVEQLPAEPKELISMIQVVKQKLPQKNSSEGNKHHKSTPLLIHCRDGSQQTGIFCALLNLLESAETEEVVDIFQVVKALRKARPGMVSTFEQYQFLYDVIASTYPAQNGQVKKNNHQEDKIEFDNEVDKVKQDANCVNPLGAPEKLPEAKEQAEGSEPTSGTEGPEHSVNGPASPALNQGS
- Method Notes: Phosphatase assay using pNPP as substrate
- Type: biochemical
- Condition Set: pH 7.0
Reported Property: IC50 (µM)

- Compound: "O=C1C(=O)c2cccnc2-c2ccccc21 [Example 2, benzo[h]quinoline-5,6-dione]"
  Reported Property: "IC50"
  Value Measured: 1
- Compound: "O=C1C(=O)c2ccoc2-c2ccccc21 [Example 3, naphtho[,1,2b]furan-4,5-dione]"
  Reported Property: "IC50"
  Value Measured: 1.1
- Compound: "O=C1C(=O)c2ccsc2-c2ccccc21 [Example 4, naphtho[1,2-b]thiophene-4,5-dione]"
  Reported Property: "IC50"
  Value Measured: 1.5
- Compound: "O=C1C(=O)c2ncccc2-c2ccccc21 [Example 1, benzo[f]quinoline-5,6-dione]"
  Reported Property: "IC50"
  Value Measured: 2.3
